system: ATP; experiment: switch fluorescence ratio, 500 uM ATP over buffer (Cy3 cluster intensity, sum of 5 cycles each) (fold (ratio)); higher = stronger signal-on switching upon ATP binding; sequences stand for … in TCGTCGGCAGCGTCAGATGTGTATAAGAGACAGTTTTTTTTTTTTTTTTTTTTTTTTT…TC; conditions: aptamer strand: ATP DNA aptamer (quencher-CACCTGGGGGAGTATTGCGGAGGAAGG + anchor), 100 nM annealed; ATP concentration: 500 uM;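 note: ATP exposure 15 min at 22 °C before imaging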
Catalogue of switch fluorescence ratio readings, one per entry.

- Sequence text: "GATTGATGGG"
  switch fluorescence ratio: 0.995
- Sequence text: "TTAAAGCACG"
  switch fluorescence ratio: 1.07
- Sequence text: "CACTTCATTT"
  switch fluorescence ratio: 1.01

Tell me its switch fluorescence ratio given ATGTAGGGTG as the entry.
1.01

Let me know recorded switch fluorescence ratio for AACGAGGGTC , thanks.
1.01

Give switch fluorescence ratio for the following sequence: GTTTTTGTCG
1.07

Recall and state the measured switch fluorescence ratio for AGGTTTGGGT .
0.998

Source listed as the supplement of paper PMC10126150.
